tested on: carrageenin edema; experiment: Inhibitory effect on carrageenin edema (oral administration); type: in vivo, rat (Sprague-Dawley strain); settings: 100 mg/Kg oral, 3 hour after administration
Overview of recorded Inhibition to carrageenin edema for various compounds
Report the figure in % without appending any unit label.

{"COMPOUND": "CCCCC1C(=O)N(c2ccccc2)N(c2ccccc2)C1=O [Phenylbutazone]", "UNITS LABEL": "%", "Inhibition to carrageenin edema": 54.3}
{"COMPOUND": "CC(C)Cc1ccc(C(C)C(=O)O)cc1 (stereo not shown) [Ibuprofen]", "UNITS LABEL": "%", "Inhibition to carrageenin edema": 42.2}
{"COMPOUND": "CC(C(=O)C(=O)O)c1ccc(N2Cc3ccccc3C2=O)cc1 (stereo not shown)", "UNITS LABEL": "%", "Inhibition to carrageenin edema": 53.2}

Now consider the entry below.
Supply measured Inhibition to carrageenin edema of CC(C(=O)C(N)=O)c1ccc(N2Cc3ccccc3C2=O)cc1 (stereo not shown) in your reply. 51.0

These measurements were taken from patent US4166125A.
